Source listed as PubChem BioAssay (NCI).

- System: SF-539 CNS
- protocol-summary: NCI-60 one-dose screen, 48 h (100 = growth as untreated, 0 = no growth, -100 = all killed)
- assay-setup: 10 µM unless noted
Compounds without any hit were thinned out: in the full panel of roughly 83,000, 20% have a hit.
result-type: growth (%)
Your answer should be a plain number; it is taken to be in %.

Please review the entries below; each comes with its answer.
CNCCNc1nc2ccccc2c2c(=O)c3cccc(OC)c3sc12    34.9
COc1ccc(CN2CCCC(C(=O)c3ccc(C(F)(F)F)cc3)C2)c(O)c1 (stereo not given)    14.8
COc1cc(NC(=O)CCSc2nc3ccccc3c(=O)n2CCc2ccccn2)cc(OC)c1OC    73.7
CC(=O)Nc1nc2c(s1)CCc1c-2cn(S(=O)(=O)c2ccccc2)c1-c1ccccc1    93.5

Given CCOc1cc(Cl)c(C(C)NC(=O)c2cccc(OC)c2)cc1OCC (stereo not given) , state its recorded growth.
7.13

Input O=C(COc1cc(O)c2c(=O)cc(-c3ccccc3)oc2c1)Nc1ccccc1C(F)(F)F
35.2

Input O=C1/C(=C/c2ccc(O)cc2)COc2ccc(O)c(O)c21
-13.7
